# Experiment Notes: NCI Yeast Anticancer Drug Screen. Data for the mec2-1 strain (AID 157)
# Stated Conditions: S. cerevisiae mec2-1 strain, at 50.0 µM, active compounds read high
About 79,000 compounds went through this panel and 15% of them were active in at least one assay; those are over-represented in the sample as a whole.
Measured Quantity: growth inhibition (%)

Compound	Uom	Meas Value
O=C(/C=C(/Nc1ccccc1)C(=O)c1ccccc1)c1ccccc1	%	37.2
O=S1(=O)C=C(c2ccccc2)S(=O)(=O)C=C1c1ccccc1	%	89.7
Nc1nc(-c2ccc(Cl)cc2)cs1	%	97.4
COc1ccc(C)cc1NC(=O)ON=C1CCCCC1	%	91.8
O=C1/C(=C\c2ccc(Cl)cc2Cl)Sc2scc(-c3ccc(O)c(O)c3)[n+]21	%	76.9
O=[N+]([O-])c1cccc2c(O)cccc12	%	33.4
COC(=O)C1=Cc2cc3c(cc2[C@H](c2ccc4c(c2)OCO4)C1C(=O)OC)OCO3 (some centres not stated)	%	33.9
CCCCCCCCCCCCOc1c(Cl)cc(Cl)c(Cl)c1Cc1c(O)c(Cl)cc(Cl)c1Cl	%	98.5
C/C(=N/Nc1ccc([N+](=O)[O-])cc1[N+](=O)[O-])C(=O)O	%	59.8
O=C1/C(=C/c2ccccc2[N+](=O)[O-])COc2ccccc21	%	12.7
COC(=O)C(CBr)CBr	%	9.55
CCCNC(=O)C(=O)NNc1ccccc1	%	59.1

* * *

# Experiment Notes: NCI Yeast Anticancer Drug Screen. Data for the mlh1 rad18 strain (AID 175)
# Stated Conditions: S. cerevisiae mlh1 rad18 strain growth inhibition; at 50.0 µM (retest, dose inferred, filed as 5.0); active compounds read high
This is part of a sample that, as a whole, favours compounds with a hit. Of some 79,000 tested, about 15% had one in any assay.

Smiles	growth inhibition (%)
Oc1c(Cl)c(Cl)c2ncccc2c1Cl	12
COC(=O)c1ccc(SCC(=O)c2ccc([N+](=O)[O-])o2)cc1	79
CCC[CH2][Sn]([CH2]CCC)([O]C(=O)c1ccc(C)c(N)c1)[O]C(=O)c1ccc(C)c(N)c1	97
CS(=O)(=O)OCCN(CCOS(C)(=O)=O)c1ccc(C=Nc2ccc(-c3csc(-c4ccc(Br)cc4)n3)cc2)c(Cl)c1	76
CCC/C=C1/OC(=O)C2=C[C@H]3CC[C@]21[C@]1(OC(=O)C2=C1CCC=C2)[C@H]3CCC	95

* * *

# Experiment Notes: NCI Yeast Anticancer Drug Screen. Data for the rad50 strain (AID 155);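 also: 0% = growth of vehicle-only cultures of the same strain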
# Stated Conditions: S. cerevisiae rad50 strain growth inhibition; at 5.0 µM (retest, dose inferred, filed as 0.5); active compounds read high
This is part of a sample that, as a whole, favours compounds with a hit. Of some 79,000 tested, about 15% had one in any assay.
Quick rule: growth inhibition of at least 10% means y, below that means n.

Compound	Answer Label
COc1ccc2c(c1)[n+]([O-])c(S(=O)(=O)c1ccc(C)cc1)c(N)[n+]2[O-]	n
O=C(Nc1ccccc1)c1ccc([N+](=O)[O-])o1	y
CC(C)(C)[Si](C)(C)OCC1OC(n2cc(I)c(N)nc2=O)C(O[Si](C)(C)C(C)(C)C)C1O[Si](C)(C)C(C)(C)C (stereo not given)	y
CCS(=O)(=O)/C=C/c1ccncc1	n
O=C1/C(=C/c2ccccc2)CCC/C1=C\c1ccc(O)c(CN2CCCCC2)c1	y
